System: PfHDP1 homeodomain (GST-tagged)
testProtocol: gcPBM binding intensity (ln(normalized median fluorescence intensity)); higher = stronger DNA binding
Whole data set: some 25,000 sequences, median “ln(normalized median fluorescence intensity)” near 6.7, cut for the highest 2% near 10. For the sample, the highest values were picked, then their nearest neighbours and some sequences at random.
valueKind: gcPBM binding intensity (ln)

>>> observed("TATATATATATATGAGTGCATATGTGTAATATAAAA")
9.65
>>> observed("ATTTAACAACTTCAAACACACAATATAGATTTATAT [CACACA_site7067]")
6.6
>>> observed("ATAAATAATTATATATGTACACATTATGAATGGATA [XGTACX_site8336]")
6.74
>>> observed("ATATTTTATTTAATTACACACAATATTGCAATTTGT [CACACA_site669]")
8.74
>>> observed("TAAGAAATAAATAGTACACACATAGACACCCACCGA [CACACA_site1516]")
7.1
>>> observed("TATGTTTTTACATATTGTACATATTCTTGTAATACG [XGTACX_site1179]")
6.29
>>> observed("ATATATATATATAATGCACACATTATGAATTATGTA [CACACA_site3384]")
10.8
>>> observed("ATTAAGACACATTGCACACGTGCACCCATAGAAAAA [CACACA_site408]")
10.5
>>> observed("TTTTATAATATTTAAAGTACATTCTAAAAATATAAT [XGTACX_site8033]")
6.01
